For each record, write down the corresponding growth.
- Test system: PC-3 prostate
- TEST_METHOD_NOTES: NCI-60 one-dose screen, 48 h (100 = growth as untreated, 0 = no growth, -100 = all killed)
- CONDITION_SUMMARY: 10 µM unless noted
About 83,000 compounds went through this panel and 20% of them were active in at least one assay; those are over-represented in the sample as a whole. Active and inactive are the calls of the source. How the source made its calls: active means growth percent below 10; inactive means the rest.

{"columns": ["COMPOUND", "VALUE_REPORTED"],
 "data": [
  ["Cc1ccc2c(/C=C/C(=O)c3cc(CN4CCOCC4)c(O)c4nc(C)ccc34)cc(CN3CCOCC3)c(O)c2n1", "19.9% (inactive)"],
  ["C#CCOc1cccc(Nc2ncnc3cc(NC(=O)CCl)ccc23)c1", "-83.8% (active)"],
  ["CCCC(=O)NC(c1ccc2c(c1)OCO2)c1cc(Cl)c2cccnc2c1O (stereo not given)", "34.5% (inactive)"],
  ["CCC(C)(C)c1ccc(Nc2ccc(Nc3ccc(C(C)(C)CC)cc3)cc2)cc1", "65.8% (inactive)"]
]}

Given item Cc1ccc(O)c(NC(=O)c2cccc(Nc3ccnc(C(F)(F)F)c3)c2)c1 , the value recorded as its growth is 68% (inactive)

----------
- System: CAKI-1 renal
- TEST_METHOD_NOTES: NCI-60 one-dose screen, 48 h
- CONDITION_SUMMARY: 10 µM unless noted
The panel holds about 83,000 compounds, 20% with a hit somewhere; the sample as a whole holds those more often. Active and inactive are the calls of the source. Rule for the calls: active = growth percent below 10; inactive = the rest.
Your answer must be one of the following: active, inactive

{"columns": ["COMPOUND", "CATEGORY_LABEL"],
 "data": [
  ["O=c1cc(-c2ccccc2)nc(SCc2nc3cc(Cl)c(Cl)cc3[nH]2)[nH]1", "inactive"],
  ["Cc1cc2oc(/C=C/c3ccccc3)cc(=O)c2c(C)c1Cl", "inactive"],
  ["C#COc1cccc(Nc2ncnc3cc(NC(=O)[C@H](C)Cl)ccc23)c1", "inactive"],
  ["CC(C)(C)c1ccc(S(=O)(=O)Oc2ccc(-c3sc4cc(OS(=O)(=O)c5ccc(C(C)(C)C)cc5)ccc4c3C(=O)c3ccc(OCCN4CCCCC4)cc3)cc2)cc1", "inactive"],
  ["COC1/C=C/OC2(C)Oc3c(C)c(O)c4c(O)c(c(/C=N/N(c5ccccc5)c5ccccc5)c(O)c4c3C2=O)NC(=O)C(C)=C/C=C/C(C)C(O)C(C)C(O)C(C)C(OC(C)=O)C1C (centres undefined)", "inactive"]
]}

Request: Recorded test call requested for CN(C)/C(N)=N/N=C(\c1ccccc1)c1ccccn1
Response: inactive

Request: Recorded test call requested for COc1cc2c(c(OC)c1OC)C(=O)CC(c1cccc(C(=O)Nc3ccccc3Br)c1)O2 (centres undefined)
Response: inactive

Request: Recorded test call requested for O=C(O)c1cn(C2CC2)c2cc(N3CCN(C(=O)N4CCOCC4)CC3)c(F)cc2c1=O
Response: inactive

Request: Recorded test call requested for COC12C=C/C(=C(/C(=O)OCCSc3ccnn3C)C(=O)CCCCCCCCC3(OC)C=C/C(=C(/C(=O)OCCSc4ccnn4C)C(=O)CCCCCCCC1)O3)O2
Response: inactive

Request: Recorded test call requested for O=C1C=C(SCCO)C(=O)c2ccccc21
Response: inactive

Request: Recorded test call requested for CCN(CCNc1ccc(C)c2sc3cc(Cl)ccc3c(=O)c12)CC(C)(C)O
Response: inactive

Request: Recorded test call requested for O=C(/C=C/c1ccccc1)c1cccc2ccccc12
Response: inactive

Request: Recorded test call requested for CNC(=O)c1cc(Oc2ccc3c(c2)sc2nc(-c4ccc(Cl)c(C(F)(F)F)c4)cn23)ccn1
Response: inactive

Request: Recorded test call requested for Nc1nc(N(Cc2ccccc2)c2ccccc2)c2cn[nH]c2n1
Response: inactive

Request: Recorded test call requested for c1csc(-c2cn3nc(-c4c[nH]c5ccccc45)sc3n2)c1
Response: inactive

Request: Recorded test call requested for C#Cc1cccc(Nc2ncnc3cc(NC(=O)CCl)ccc23)c1
Response: active
